pKd reference
- studyTarget: T1, Rb^P L550I (human, UniProt P06400 380-788, L550I)
- T1 construct: also called variant 27
- T1 sequence (looked up): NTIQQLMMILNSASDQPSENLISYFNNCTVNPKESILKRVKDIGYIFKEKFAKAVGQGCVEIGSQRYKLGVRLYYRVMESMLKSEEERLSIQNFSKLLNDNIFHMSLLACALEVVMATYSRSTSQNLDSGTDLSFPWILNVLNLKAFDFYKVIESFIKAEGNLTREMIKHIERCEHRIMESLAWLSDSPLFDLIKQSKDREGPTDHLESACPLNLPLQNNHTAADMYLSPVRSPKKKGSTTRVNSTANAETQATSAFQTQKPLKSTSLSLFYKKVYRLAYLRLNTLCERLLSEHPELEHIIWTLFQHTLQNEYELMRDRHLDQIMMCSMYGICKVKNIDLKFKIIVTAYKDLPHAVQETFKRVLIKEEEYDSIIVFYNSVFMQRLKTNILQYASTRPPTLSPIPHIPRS
- assayNotes: fluorescence polarisation; 25 °C; unlabeled Rb^P titrated against 1.5 nM TMR-E2F1^TD or 7.5 nM TMR-E7^LxCxE; 25 mM Tris pH 8.0, 200 mM NaCl, 1 mM DTT, 0.1% Tween-20; 2 min incubation; quadratic fit; apparent Kd for the variants, Kd for WT
- conditionNotes: both partners purified
No end group written: not given here. TMR = tetramethyl rhodamine dye
# pKd: negative log10 of molar concentration; output just the value

>  <binder>
DLYCYEQLN (also: TMR label, position not given here, source: synthetic peptide, bought: GenScript) [TMR-E7^LxCxE, LxCxE peptide of the E7 oncoprotein from HPV]

>  <reported>
8.52

$$$$

We now examine a further binder.
query: Given the entry {TMR}-GEGIRDLFDCDFGDLTPLD (also called E2F^TD; source: synthetic peptide, bought: GenScript) [TMR-E2F1^TD, peptide of the E2F1 transactivation domain] , report its measured pKd.
result: 7.39
